System: CCRF-CEM leukemia
Test name: NCI tumour cell line growth inhibition, 48 h
Listing of entries alongside the reported TGI.

Example entries begin here.
Report TGI for `C[C@H](CCC(=O)NN)[C@H]1CC[C@H]2[C@@H]3CC[C@@H]4C[C@H](O)CC[C@]4(C)[C@H]3CC[C@]12C` please.
> 72.1 µM

Report TGI for `COc1cc2c(cc1OC)C(=O)/C(=C/c1ccccc1)CC2` please.
> 100 µM

In the following, a different compound is considered.
Report TGI for CC(C)(C)c1[nH]nc2c1C(c1cc3ccccc3[nH]c1=O)Nc1cc(C(=O)Nc3ccc(Cl)cc3)ccc1N2 (stereo not given) please.
> 21.6 µM

----------
Test system: ACHN renal
Test name: NCI tumour cell line growth inhibition, 48 h; in the data active = GI50 below about 0.43 µM; inactive = the rest
Thanks in advance; please answer with one of these: label 1 = active, label 0 = inactive

Which result was noted for this compound in the test: `COc1cc(C(=O)/C=C/c2c(-c3cccs3)nc3sc(C)cn23)cc(OC)c1OC`
label 0

***
Which result was noted for this compound in the test: `O=c1c2cc(I)ccc2nc(-c2cccs2)n1-c1ccc(S(=O)(=O)Nc2nccs2)cc1`
label 0

Which result was noted for this compound in the test: `Nc1ccc2c(c1)Cc1cc(Cl)c(Cl)cc1-2`
label 0

Which result was noted for this compound in the test: `O=C1/C(=C\c2ccc(Br)cc2)CN(C(=O)c2ccccc2F)C/C1=C\c1ccc(Br)cc1`
label 0

Which result was noted for this compound in the test: `Cc1c(NC(=O)c2cc(C(N)=O)nc3cc(F)ccc23)c(C(F)(F)F)nn1Cc1ccc(C#N)cc1`
label 0

Which result was noted for this compound in the test: O=C1OCC2=C1C(c1cccc(F)c1)c1cc3c(cc1N2CCO)CCC3 (stereo not drawn)
label 1

Which result was noted for this compound in the test: `COc1cc2c3c(n(CCCN=[N+]=[N-])c(=O)c2cc1OC)-c1ccc(C#N)cc1C3=O`
label 0

Which result was noted for this compound in the test: COc1cc(/C=C2\CC3C4CCC5=CC(=O)CC[C@]5(C)C4CC[C@]3(C)C2=O)ccc1OCCCn1ccnc1 (stereo partly drawn)
label 0

Which result was noted for this compound in the test: C=C(C)[C@@H]1CC[C@]2(CNCCO)CC[C@]3(C)[C@H](CC[C@@H]4[C@@]5(C)CCC(N)[C@@](C)(CO)[C@@H]5CC[C@]43C)[C@@H]12 (stereo partly drawn)
label 0

Which result was noted for this compound in the test: `COc1cc(Nc2cc(C)nc(N3CCN(c4ccnc5cc(Cl)ccc45)CC3)n2)cc(OC)c1`
label 1

Which result was noted for this compound in the test: `CCC[CH2][Sn]([CH2]CCC)([O]C(=O)Cc1ccc(F)cc1)[O]C(=O)Cc1ccc(F)cc1`
label 0

Which result was noted for this compound in the test: `CC1(C)CCC(S(=O)(=O)c2ccc3c(c2)/C(=N\O)c2cc(S(=O)(=O)N4CCN(c5ccc(F)cc5O)CC4)ccc2-3)CC1`
label 1

Which result was noted for this compound in the test: `CCCCCCCCCCCCC[N+](C)(C)Cc1ccccc1`
label 0

----------
System: COLO 205 colon
Test name: NCI tumour cell line growth inhibition, 48 h; in the data active = GI50 below about 0.43 µM; inactive = the rest
Thanks in advance; please answer with one of these: T = active, F = inactive

These solved cases illustrate the format of a correct answer.
Which result was noted for this compound in the test: `CCOC(=O)c1cc(NC(=O)c2cc(NC(=O)c3cc(NC(=O)c4c(-c5ccccc5)noc4C)cn3C)cn2C)cn1C`
F

Which result was noted for this compound in the test: `Nc1ccc2c(c1)Cc1cc(Cl)c(Cl)cc1-2`
F

***
Which result was noted for this compound in the test: `CCCCCCCCCCCCCCCCCCOP(=O)([O-])OC1CC[N+](C)(C)CC1`
F

Which result was noted for this compound in the test: `COc1cc(OC)cc(Oc2nc3cc(N)cc(N)c3nc2-c2ccccc2)c1`
F

Which result was noted for this compound in the test: `COc1cc2c(cc1O)N=C[C@@H]1C[C@@H](F)CN1C2=O`
F

Which result was noted for this compound in the test: `Ic1ccc2[nH]cc(SSc3c[nH]c4ccc(I)cc34)c2c1`
F

Which result was noted for this compound in the test: `Cc1cc(C)c(CNC(=O)c2cc(-c3ccc(CN4CCOCC4)cc3)cc3c2cnn3C2CCCC2)c(=O)[nH]1`
F
